# protocol.summary: Passive membrane permeability of the compound in phosphate buffered saline at 200 uM incubated for 5 hrs by PAMPA assay based HPLC analysis
# Type: ADME
# condition.label: PAMPA, read-out: permeability
reported.metric: Papp at 5 h, 200 µM (×10⁻⁶ cm/s)
Give the quantity in ×10⁻⁶ cm/s, number only.

Completed entries (count: 3):
[
  {
    "smiles.code": "NC(=O)c1cccc(NC(=O)[C@@H](NC(=O)c2ccc(N3CCOCC3)cc2)c2ccc(OCc3ccccc3)cc2)c1",
    "reading.unit": "×10⁻⁶ cm/s",
    "Papp at 5 h, 200 µM": 1.7
  },
  {
    "smiles.code": "NC(=O)c1cccc(NC(=O)[C@@H](NC(=O)c2ccc(Oc3ccc(C(F)(F)F)cc3)cc2)c2ccc(OCc3ccccc3)cc2)c1",
    "reading.unit": "×10⁻⁶ cm/s",
    "Papp at 5 h, 200 µM": 1.4
  },
  {
    "smiles.code": "Cn1c(=O)c2c(ncn2C)n(C)c1=O",
    "reading.unit": "×10⁻⁶ cm/s",
    "Papp at 5 h, 200 µM": 7.3
  }
]

Dear colleague, I am looking for the recorded Papp at 5 h, 200 µM of the following molecule: NC(=O)c1cccc(NC(=O)[C@@H](NC(=O)c2ccc(C(=O)c3ccccc3)cc2)c2ccc(OCc3ccccc3)cc2)c1 1.8

Please give the measured Papp at 5 h, 200 µM for this molecule: O=C1NC(=O)C(c2ccccc2)(c2ccccc2)N1 5.7

Give the measured Papp at 5 h, 200 µM of NC(=O)c1cccc(NC(=O)[C@@H](NC(=O)c2ccc(-c3ccco3)cc2)c2ccc(OCc3ccccc3)cc2)c1 . 0.45

Any idea what its Papp at 5 h, 200 µM is? The molecule is NC(=O)c1cccc(NC(=O)[C@@H](NC(=O)c2ccc(Oc3ccccc3)cc2)c2ccc(OCc3ccccc3)cc2)c1 2.2

These measurements were taken from ChEMBL document CHEMBL4811254.
